Value source: PubChem BioAssay AID248

Below, each of the compounds is paired with its reported T/C value.
Tested on: L1210 leukemia ip in BDF1 mice, survival T/C
ASSAY REMARKS: NCI In Vivo Anticancer Drug Screen. Data for tumor model L1210 Leukemia (intraperitoneal) in B6D2F1 (BDF1) mice
EXPERIMENTAL CONDITIONS: endpoint: mean survival time; dose: 25.0 mg/kg/injection; schedule: Q04DX003 (ip); vehicle: saline with Tween-80; higher = longer survival
Inconclusive results and toxic doses are left out.
OBSERVABLE: T/C

>>> print(df.to_string())
                                   compound                           target_of_assay  experimental_value
0               ClC(Cl)(Cl)c1nc2nccnc2[nH]1  L1210 leukemia ip in BDF1 mice, survival T/C     98 % of control
1          COc1cccn(C/C=C(\C)CCC=C(C)C)c1=O  L1210 leukemia ip in BDF1 mice, survival T/C     99 % of control
2          O=C1CCSC(=S)N1c1cccc(C(F)(F)F)c1  L1210 leukemia ip in BDF1 mice, survival T/C    101 % of control
3  CCCCCCCCCCCCCCCCCC1=NCC[N+]1(CCO)Cc1ccccc1 (centres undefined) (tested in a mixture with another compound)  L1210 leukemia ip in BDF1 mice, survival T/C    101 % of control

* * *

Test system: L1210 leukemia ip in BDF1 mice, survival T/C
ASSAY REMARKS: NCI In Vivo Anticancer Drug Screen. Data for tumor model L1210 Leukemia (intraperitoneal) in B6D2F1 (BDF1) mice
EXPERIMENTAL CONDITIONS: endpoint: mean survival time; dose: 200.0 mg/kg/injection; schedule: Q04DX003 (ip); vehicle: saline; higher = longer survival
Inconclusive results and toxic doses are left out.
# T/C per entry
OBSERVABLE: T/C

                                    compound  experimental_value
 0               CCCCOCCOCCOc1ccc(C(=O)O)cc1     94 % of control
 1          CCOC(=O)C(C)(C)CSC(C)(C)C(=O)OCC    101 % of control
 2    CC1(C)N=C(N)N=C(N)N1NC(=O)c1cccc(Cl)c1     94 % of control
 3                   CC1([N+](=O)[O-])COCOC1     95 % of control
 4                Cc1c(Cl)c(C)c(Cl)c(Cl)c1Cl     87 % of control
 5  O=C(Nc1cccc(O)c1)C(O)C(O)C(O)C(O)CO (stereo not drawn)     94 % of control
 6          Cc1[nH]c(=O)[nH]c(=O)c1N(CCO)CCF    101 % of control
 7  CCOC(=O)C(Cc1ccccc1[N+](=O)[O-])C(=O)OCC    103 % of control
 8  CC1CC(Cc2ccccc2CC2CC(C)OC2=O)C(=O)O1 (stereo not drawn)     89 % of control
 9    COc1cc2c(c3oc(=O)ccc13)C(=O)CC(C)(C)O2    102 % of control
10             O=C1CC2=C(CC(O)=CC=C2)C(=O)O1    100 % of control
11  C/C=C\CC(C(C)=O)C(=O)OCC (stereo not drawn)     91 % of control
12               C=CCNC(=S)C(C(=O)OC)C(=O)OC    100 % of control
